Test system: biotinyl-Leu-oxazolone
Test: self-aminoacylation, catalytic enhancement (BLO) (fold over background); higher = more active; k-Seq, kA / k0A0; sequences stand for … in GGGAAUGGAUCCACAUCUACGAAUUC…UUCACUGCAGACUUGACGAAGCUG
This sample holds only a part of the variants without activity.
Measured self-aminoacylation determines class: LOW = under 0.9, MEDIUM = from 0.9 up to 2, HIGH = 2 and over

MONOMER_SEQUENCE	ANSWER_LABEL
AUUCACCAAGGUCUUCGGGUG [Fam2.2 aminoacylation ribozyme variant]	HIGH

Entry AUUACCCUGGUCAACGAGUCA [Fam2.1 aminoacylation ribozyme variant] belongs to which category?
LOW

Can you handle AUUCCCCUGGUCAUCUAGUGA [Fam2.1 aminoacylation ribozyme variant] next?
HIGH

Can you handle AAGUUUGCUGAUAGGCGCAAG [Fam3.1 aminoacylation ribozyme variant] next?
LOW

Can you handle CCACACUUCAAGCAAACAGUC [Fam1B.1 aminoacylation ribozyme variant] next?
LOW

Can you handle AAGUUUGCUAAUAGUCGGAAG [Fam3.1 aminoacylation ribozyme variant] next?
MEDIUM

Can you handle AUGACCCUCGUCAUCGAGUGA [Fam2.1 aminoacylation ribozyme variant] next?
HIGH

Can you handle CAGUUUGCUAAUAGUCGCAUG [Fam3.1 aminoacylation ribozyme variant] next?
HIGH

Can you handle CCCCACUUCAAGCAAUCGGUU [Fam1B.1 aminoacylation ribozyme variant] next?
HIGH

Can you handle AAGCUUGCUAAUAGUCGGAAG [Fam3.1 aminoacylation ribozyme variant] next?
MEDIUM

Can you handle CUACUUCAAAGAAUCGGUCUA [Fam1A.1 aminoacylation ribozyme variant] next?
LOW

Can you handle CCACACUUCAAUCAAUCGGUU [Fam1B.1 aminoacylation ribozyme variant] next?
MEDIUM

Can you handle AAGCUUGCUAAUAGUCGCGAG [Fam3.1 aminoacylation ribozyme variant] next?
HIGH

Can you handle ACCCACUUCAAGCAAUCGGUC [Fam1B.1 aminoacylation ribozyme variant] next?
MEDIUM

Can you handle CCACACUACAAGCAAUCGCUC [Fam1B.1 aminoacylation ribozyme variant] next?
MEDIUM

Can you handle CCACACUUCAAGAAAUCGGAC [Fam1B.1 aminoacylation ribozyme variant] next?
LOW

Can you handle AUUACACUGGUCAUCGAGUGA [Fam2.1 aminoacylation ribozyme variant] next?
HIGH

Can you handle CCACACUUUAAGUAAUCGGUC [Fam1B.1 aminoacylation ribozyme variant] next?
LOW

Can you handle CUACUUCAACCCAUCGGUCUG [Fam1A.1 aminoacylation ribozyme variant] next?
MEDIUM

Can you handle AUAACCCGGGUCAUCGAGUGA [Fam2.1 aminoacylation ribozyme variant] next?
HIGH

Can you handle AUUGACCUCGGUCAUCGGGUG [Fam2.2 aminoacylation ribozyme variant] next?
HIGH

Can you handle CUACUUCAUACAAACGGUCUG [Fam1A.1 aminoacylation ribozyme variant] next?
LOW

Can you handle CUACUUCAAAGAAUGGGUCUG [Fam1A.1 aminoacylation ribozyme variant] next?
LOW

Can you handle AUUCAGCUAGGUCAUUGGGUG [Fam2.2 aminoacylation ribozyme variant] next?
HIGH
